# experiment-summary: Cytotoxicity against human MCF7 cells assessed as cell viability at 12.5 uM incubated for 24 hrs by MTT assay relative to control
# Assay type: toxicity, cell-based
# assay-setup: read-out: Activity
property-name: viability at 24 h, 12.5 µM (%)

# substance, unit-string, value-reported
data = [
    ("H-FLPIIKWVKKFFWRWR-OH", "%", 77),
]

----------
# experiment-summary: Cytotoxicity against mouse RAW264.7 cells assessed as cell viability at 12.5 uM incubated for 24 hrs by MTT assay relative to control
# Assay type: toxicity, cell-based
# assay-setup: read-out: Activity

# substance, viability at 24 h, 12.5 µM
rows = [
    ("H-FLPIIKWVKKFFWRWR-OH", "> 90%"),
]

The reported numbers originate from ChEMBL document CHEMBL5360649.
